# test.system: T1, CRBN, Q96SW2;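 also: pooled lentiviral library of zinc finger degron-EGFP fusions in mCherry-positive Jurkat cells, FACS-sorted after compound exposure, with degron abundance counted by next-generation sequencing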
# T1 chain: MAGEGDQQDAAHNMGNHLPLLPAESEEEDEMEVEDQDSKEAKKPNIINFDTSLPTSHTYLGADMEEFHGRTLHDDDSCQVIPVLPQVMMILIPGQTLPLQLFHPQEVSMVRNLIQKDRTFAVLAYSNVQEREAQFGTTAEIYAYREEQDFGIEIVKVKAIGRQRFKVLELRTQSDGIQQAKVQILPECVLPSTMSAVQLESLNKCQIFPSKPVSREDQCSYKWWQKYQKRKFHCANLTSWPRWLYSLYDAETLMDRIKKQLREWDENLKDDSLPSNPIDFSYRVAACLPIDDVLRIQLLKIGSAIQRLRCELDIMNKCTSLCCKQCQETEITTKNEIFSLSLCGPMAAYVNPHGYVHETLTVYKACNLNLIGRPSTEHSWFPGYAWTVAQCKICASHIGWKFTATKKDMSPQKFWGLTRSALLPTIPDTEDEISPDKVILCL
# assay.details: log2 fold change of degron read counts, EGFP-low vs EGFP+ sorted cells (limma voom), compound-induced degradation; higher = more compound-induced degradation of the degron-EGFP fusion; degrons are variants of IKZF1/3 zinc finger 2; compound dose not given here
# condition.parameters: Jurkat; 18 h; compound: compound 22 (5-morpholino-thalidomide)
Whole data set: some 8,300 sequences, median “log2 fold change of degron read counts, EGFP-low vs EGFP+ sorted cells (limma voom), compound-induced degradation” near -1.1, cut for the highest 2% near 3.2. The sample holds the highest values, similar sequences and a random draw of the others, so the mix is not that of the screen.
readout.type: log2 fold change of degron read counts
Output: the number by itself.

Some solved entries appear below for comparison.
chain.sequence: LLCEICGFRCTQKGNLLRHIKL [46L_47L_49E_50I_52G_53F_54R_55C_67L_, Q9UKT9]
log2 fold change of degron read counts: -1.31
--
chain.sequence: LYCEICGFMCTQKGNLLRHIKL [46L_47Y_49E_50I_52G_53F_54M_55C_67L_, Q9UKT9]
log2 fold change of degron read counts: 3.27
--
chain.sequence: LICEICGFRCTQKGNLLRHIKL [46L_47I_49E_50I_52G_53F_54R_55C_67L_, Q9UKT9]
log2 fold change of degron read counts: 2.26

Let us move to another entry and its log2 fold change of degron read counts.
Please indicate log2 fold change of degron read counts recorded for LACEICGFMCTQKGNLLRHIKL [46L_47A_49E_50I_52G_53F_54M_55C_67L_, Q9UKT9] 1.33
